Below is a list of entries, each paired with its recorded cell viability value.
system: SEM cells; assay: cell viability relative to DMSO control; higher = less cytotoxic; details: RPMI 5 mM glucose + 10% dialyzed FBS; 48 h; 0.000781 µM
readout-kind: cell viability

compound	readout-kind	result
COC(=O)C[C@](O)(CCCC(C)(C)O)C(=O)O[C@@H]1C(OC)=CC23CCCN2CCc2cc4c(cc2[C@H]13)OCO4 (some centres undefined)	cell viability	104%
C[C@H]1COC2=C3N1\C=C(C(O)=O)/C(=O)C3=CC(=C2N4CCN(C)CC4)F	cell viability	90%
CC[C@]12CC[C@H]3[C@@H](CCC/4=C/C(=O)CC[C@H]34)[C@@H]1\C=C/[C@@]2(O)C#C	cell viability	113%
C[C@@]12C(=O)OC(=O)[C@@]1(C)C1CCC2O1	cell viability	120%
CNC(=O)c1c(-c2ccc(F)cc2)oc2cc(N(CCO)[S+](C)(=O)[O-])c(C3CC3)cc12	cell viability	75.4%
C[C@@H](Oc1cc(-c2cnn(C3CCNCC3)c2)cnc1N)c1c(Cl)ccc(F)c1Cl	cell viability	112%
C[C@]12CCC(=O)C=C1CC[C@@H]1[C@@H]2[C@@H](O)C[C@@]2(C)[C@H]1CC[C@]2(O)C(=O)CO	cell viability	99.2%
CC(C)(C)NC(=O)Nc1cccc(Nc2ncc(F)c(NC(C)(C)CO)n2)c1	cell viability	107%
O=C(Nc1cc(Cl)cc2c1[nH]c1cnccc12)c1cccnc1	cell viability	113%
CCN1CCN(CC1)CC(=O)NC2=CC=C(C3=C2C4=C(S3)C=CC=C4)C5=C6O\C(=C/C(=O)C6=CC=C5)N7CCOCC7	cell viability	137%
NNCCc1ccccc1	cell viability	102%
CC(C)c1nc(CN(C)C(=O)N[C@H](C(=O)N[C@@H](Cc2ccccc2)C[C@H](O)[C@H](Cc2ccccc2)NC(=O)OCc2cncs2)C(C)C)cs1	cell viability	104%
COC(=O)Nc1cc(Nc2cc(NC3CC3)c3ncc(C#N)n3n2)c(Cl)c(N2CCN(C)CC2)c1	cell viability	113%
CC1(C)O[C@@H]2C[C@H]3[C@@H]4C[C@H](F)C5=CC(=O)C=C[C@]5(C)[C@@]4(F)[C@@H](O)C[C@]3(C)[C@]2(C(=O)CO)O1	cell viability	116%

====

test system: P12-Ichikawa; assay: cell viability relative to DMSO control; higher = less cytotoxic; conditions: HPLM + 10% dialyzed FBS; 48 h; 0.0211 µM
readout-kind: cell viability (%)

compound	readout-kind	numeric-readout
COc1ccc([C@@H]2CC(=O)c3c(O)cc(O[C@@H]4O[C@H](CO[C@@H]5O[C@@H](C)[C@H](O)[C@@H](O)[C@H]5O)[C@@H](O)[C@H](O)[C@H]4O)cc3O2)cc1O	cell viability	114
CC[S+](=O)([O-])c1cccc(-c2cc(C(=O)NC3CCN(C)CC3)c(C)c3[nH]c4ncc(C)cc4c23)c1	cell viability	128
CC(C)(O)CC[C@@H](O)[C@](C)(O)[C@H]1CC[C@@]2(O)C/3=C/C(=O)[C@@H]4C[C@@H](O)[C@@H](O)C[C@]4(C)[C@H]3CC[C@]12C	cell viability	96.6
CN(C)[S+](=O)([O-])c1ccc2c(c1)C(=Cc1cc3c([nH]1)CCCC3)C(=O)N2	cell viability	121
CC(C)C1NC(=O)C(NC(=O)C2=C3\N=C\4/C(=C(C)\C(=O)\C(=C4C(=O)NC5C(C)OC(=O)C(C(C)C)N(C)C(=O)CN(C)C(=O)C6CCCN6C(=O)C(NC5=O)C(C)C)N)OC3=C(C)C=C2)C(C)OC(=O)C(C(C)C)N(C)C(=O)CN(C)C(=O)C7CCCN7C1=O (configuration not stated)	cell viability	7.98
CNCC(O)c1ccc(O)cc1 (configuration not stated)	cell viability	113
O=C(C=CC#Cc1cccc(N[S+](=O)([O-])c2ccccc2)c1)NO	cell viability	116
C[C@](O)(CS(=O)(=O)c1ccc(F)cc1)C(=O)Nc1ccc(C#N)c(C(F)(F)F)c1	cell viability	120
CCC1(c2ccccc2)C(=O)NCNC1=O	cell viability	120
OC[C@@H](O)[C@@H](O)[C@H](O)[C@@H](O)CO	cell viability	108
CNCCCC12CCC(c3ccccc31)c1ccccc12	cell viability	95.5
CCOC(=O)c1ccc(OC(=O)CCCCCNC(=N)N)cc1	cell viability	122
C[C@](Cc1c[nH]c2ccccc12)(NC(=O)OC1C2CC3CC(C2)CC1C3)C(=O)NC[C@H](NC(=O)CCC(=O)O)c1ccccc1 (some centres not stated)	cell viability	130
NC\1=N\C(=O)N(\C=C1)[C@@H]2O[C@H](CO)[C@@H](O)[C@@H]2O	cell viability	8.83
COc1ccccc1OCC(O)COC(N)=O (configuration not stated)	cell viability	109
CC(C)N[C@@H]1CCn2c(=O)[nH]c3cccc(c32)[C@H]1O	cell viability	120
C[S+](=O)([O-])Nc1ccc([N+](=O)[O-])cc1Oc1ccccc1	cell viability	120

This collection of values is drawn from the supplement of paper PMC11451515.
